B1: OR4K15 (parent)
chain: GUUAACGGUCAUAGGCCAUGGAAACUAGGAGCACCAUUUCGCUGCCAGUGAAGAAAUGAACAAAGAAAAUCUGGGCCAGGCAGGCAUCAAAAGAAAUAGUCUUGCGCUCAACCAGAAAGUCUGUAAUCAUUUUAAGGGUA

Variants of: B1
method-notes: self-cleavage, relative activity (ratio to wild type); higher = more cleavage; in vitro, sequencing; the parent is a self-cleaving ribozyme
experimental-readout: self-cleavage
Lab note: jot the number down without any unit.

Reference set (3 entries):
U108C A129G = 0.01
G48C A92U = 1.18
U57G A126G = 0.52

## Input Could you share which self-cleavage value was measured for U12C A52G ?
## Output 0.83

## Input Could you share which self-cleavage value was measured for A86C U127C ?
## Output 0.83

## Input Could you share which self-cleavage value was measured for U2C A33G ?
## Output 0.74

## Input Could you share which self-cleavage value was measured for A47G U102G ?
## Output 0.41

## Input Could you share which self-cleavage value was measured for A82G C128U ?
## Output 0.33

## Input Could you share which self-cleavage value was measured for A60G U70C ?
## Output 0.8

## Input Could you share which self-cleavage value was measured for G31U A36G ?
## Output 2.23

## Input Could you share which self-cleavage value was measured for G14U A82U ?
## Output 0.13

## Input Could you share which self-cleavage value was measured for A68G A91G ?
## Output 1.18

## Input Could you share which self-cleavage value was measured for A13U A47G ?
## Output 0.93

## Input Could you share which self-cleavage value was measured for A110G A117U ?
## Output 0.06

## Input Could you share which self-cleavage value was measured for A69G A118G ?
## Output 0.98

## Input Could you share which self-cleavage value was measured for A98G U132A ?
## Output 0.41
